tested on: Human immunodeficiency virus 2; test: Antiviral activity against HIV2 ROD infected in human MT4 cells assessed as inhibition of virus-induced cytopathicity by MTT assay; type: functional, organism-based; conditions: Human immunodeficiency virus 2, ISOLATE ROD
pEC50: −log10 of the molar value.
Below: a set of entries, each annotated with reported pEC50.

{"columns": ["Smi", "pEC50"],
 "data": [
  ["O=C(CSc1nncnc1-c1ccccc1Cl)N1CCc2ccccc2C1", "< 4.42"],
  ["Nc1ccn([C@H]2CC[C@@H](CO)O2)c(=O)n1", 5.89],
  ["O=C(CSc1nncnc1-c1cccc2ccccc12)Nc1ccccc1[N+](=O)[O-]", "< 3.85"],
  ["O=C(CSc1nncnc1-c1cccc2ccccc12)Nc1ccccc1Cl", "< 4.20"],
  ["O=C(CSc1nncnc1-c1cccc2ccccc12)Nc1ccccc1", "< 3.81"],
  ["O=C(CSc1nncnc1-c1ccccc1Cl)Nc1cccnc1Cl", "< 3.78"],
  ["COC(=O)c1ccc(NC(=O)CSc2nncnc2-c2ccccc2Cl)c(Br)c1", "< 4.23"],
  ["Cc1cnc(NC(=O)CSc2nncnc2-c2ccccc2Cl)c(Br)c1", "< 3.84"],
  ["O=C(CSc1nncnc1-c1ccccc1Cl)Nc1ccccc1Br", "< 4.14"],
  ["O=C(CSc1nncnc1-c1cccc2ccccc12)Nc1ccccc1Br", "< 4.06"],
  ["Cc1ccc2sc(NC(=O)CSc3nncnc3-c3ccccc3Cl)nc2c1", "< 4.49"],
  ["Cc1ccccc1NC(=O)CSc1nncnc1-c1cccc2ccccc12", "< 3.80"],
  ["CCOC(=O)c1ccc(NC(=O)CSc2nncnc2-c2cccc3ccccc23)c(Br)c1", "< 3.98"],
  ["O=C(CSc1nncnc1-c1ccccc1Cl)Nc1ccccc1", "< 3.90"],
  ["Cc1ccccc1NC(=O)CSc1nncnc1-c1ccccc1Cl", "< 3.85"],
  ["O=C(CSc1nncnc1-c1ccccc1Cl)Nc1ccccc1Cl", "< 4.05"],
  ["O=C(CSc1nncnc1-c1cccc2ccccc12)Nc1cccnc1Cl", "< 4.36"],
  ["NS(=O)(=O)c1ccc(NC(=O)CSc2nncnc2-c2cccc3ccccc23)c(Br)c1", "< 4.64"],
  ["O=C(CSc1nncnc1-c1ccccc1Cl)Nc1ccccc1F", "< 4.01"],
  ["O=C(CSc1nncnc1-c1cccc2ccccc12)Nc1ccc(Cl)cc1Cl", "< 3.60"],
  ["CC(=O)c1ccc(NC(=O)CSc2nncnc2-c2cccc3ccccc23)c(Br)c1", "< 3.88"],
  ["O=C(CSc1nncnc1-c1cccc2ccccc12)Nc1ccc([N+](=O)[O-])cc1Cl", "< 3.82"],
  ["O=C(CSc1nncnc1-c1ccccc1Cl)N1CCCc2ccccc21", "< 4.46"],
  ["COC(=O)c1ccc(NC(=O)CSc2nncnc2-c2cccc3ccccc23)c(Br)c1", "< 3.76"],
  ["O=C(CSc1nncnc1-c1ccccc1Cl)c1ccc(Br)cc1Br", "< 4.55"],
  ["O=C(CSc1nncnc1-c1cccc2ccccc12)N1CCc2ccccc2C1", "< 4.89"],
  ["Cc1ccc(NC(=O)CSc2nncnc2-c2cccc3ccccc23)c([N+](=O)[O-])c1", "< 3.83"],
  ["CCOC(=O)c1ccc(NC(=O)CSc2nncnc2-c2cccc3ccccc23)c(Cl)c1", "< 3.82"],
  ["CCOC(=O)c1ccc(NC(=O)CSc2nncnc2-c2ccccc2Cl)c(Br)c1", "< 4.16"],
  ["CC(=O)c1ccc(NC(=O)CSc2nncnc2-c2ccccc2Cl)c(Br)c1", "< 4.46"],
  ["O=C(CSc1nncnc1-c1cccc2ccccc12)Nc1ccccc1F", "< 4.19"],
  ["COC(=O)c1sccc1NC(=O)CSc1nncnc1-c1ccccc1Cl", "< 3.98"],
  ["Cc1ccc(NC(=O)CSc2nncnc2-c2cccc3ccccc23)c(Br)c1", "< 3.78"],
  ["O=C(CSc1nncnc1-c1ccccc1Cl)c1ccc(Cl)c(Cl)c1", "< 4.48"],
  ["Cc1ccc(NC(=O)CSc2nncnc2-c2ccccc2Cl)c(Br)c1", "< 4.35"],
  ["O=C(CSc1nncnc1-c1ccccc1Cl)Nc1ccccc1[N+](=O)[O-]", "< 4.20"],
  ["Cc1ccc(NC(=O)CSc2nncnc2-c2ccccc2Cl)c([N+](=O)[O-])c1", "< 3.80"],
  ["Cc1cn([C@H]2C[C@H](N=[N+]=[N-])[C@@H](CO)O2)c(=O)[nH]c1=O", 8.40],
  ["O=C(CSc1nncnc1-c1ccccc1Cl)Nc1ccccn1", "< 3.91"],
  ["O=C(CSc1nncnc1-c1ccccc1Cl)Nc1ccc(Cl)cc1Cl", "< 4.29"]
]}
